- System: Moraxella catarrhalis
- PROTOCOL_DESCRIPTION: Bactericidal activity against erythromycin-susceptible Moraxella catarrhalis 11B366 incubated for 20 hrs followed by sub-culturing for 24 hrs in absence of compound
- Assay type: functional
METRIC: MBC (µg/mL)

CC[C@H]1OC(=O)[C@@](C)(F)C(=O)[C@H](C)[C@@H](O[C@@H]2O[C@H](C)C[C@H](N(C)C)[C@H]2O)[C@](C)(OC)C[C@@H](C)/C(=N\OC/C=C/c2ccc3ncccc3c2)[C@H](C)[C@H]2OC(=O)O[C@@]21C = 2
CC[C@H]1OC(=O)[C@H](C)C(=O)[C@H](C)[C@@H](O[C@@H]2O[C@H](C)C[C@H](N(C)C)[C@H]2O)[C@](C)(OC)C[C@@H](C)C(=O)[C@H](C)[C@H]2N(CCCCn3cnc(-c4cccnc4)c3)C(=O)O[C@]12C = 0.25
CC[C@H]1OC(=O)[C@H](C)C(=O)[C@H](C)[C@@H](O[C@@H]2O[C@H](C)C[C@H](N(C)C)[C@H]2O)[C@](C)(OC)C[C@@H](C)/C(=N\OCC#Cc2cncc3ccccc23)[C@H](C)[C@H]2OC(=O)O[C@@]21C = 4
CC[C@H]1OC(=O)[C@H](C)[C@@H](O[C@H]2C[C@@](C)(OC)[C@@H](O)[C@H](C)O2)[C@H](C)[C@@H](O[C@@H]2O[C@H](C)C[C@H](N(C)C)[C@H]2O)[C@](C)(OC)C[C@@H](C)C(=O)[C@H](C)[C@@H](O)[C@]1(C)O = 0.25

Where do these numbers come from? They come from ChEMBL document CHEMBL4004878.
